biological target: wild type human RORγt LBD (Homo sapiens); construct: expressed in transfected cells; host or cells: HEK293T; experiment: RORγt (LBD) Reporter Assay (GAL4-luciferase, HEK293T cells); type: cell-based; conditions: HEK-293T, read-out: RORγt (LBD) Reporter Assay, % inhibition @ 6 µM, 6 µM compound concentration
Entries and their inhibition at 6 µM
The answer is to be given in %; state only the numeric part.

COc1nc2ccc(C(O)(c3cncn3C)c3cnnn3C)cc2c(Cl)c1Cc1ccc(C(F)(F)F)cc1 (racemic) [Example 89a] = 98
COc1nc2ccc(C(O)(c3ccc(C#N)cc3)c3cncn3C)cc2c(Cl)c1Cc1ccc(-n2cncn2)cc1 (centres unmarked) [Example 14a] = 105
COc1nc2ccc(C(O)(c3cncn3C)c3cnnn3C)cc2c(Cl)c1Cc1ccc(C(F)(F)F)cc1 (single isomer, unassigned) [Example 89b] = 97
COc1nc2ccc(C(O)(c3ccccc3)C3CCN(C(C)=O)CC3)cc2c(Cl)c1Cc1ccc(F)cc1 (centres unmarked) [Example 50] = 82
COc1nc2ccc(C(O)(c3ccc(C)nc3C)c3cnnn3C)cc2c(Cl)c1Cc1ccc(-n2cncn2)cc1 (single isomer, unassigned) [Example 22b] = 97

Dear colleague, I am looking for the recorded inhibition at 6 µM of the following compound: Cc1nc2ccc(C(O)(c3ccc(C(F)(F)F)nc3)c3cncn3C)cc2c(Cl)c1Cc1ccc(C(F)(F)F)cc1 (centres unmarked) [Example 26a]
101

Now try COCCOc1nc2ccc(C(O)(c3ccc(Cl)cc3)c3cncn3C)cc2c(Cl)c1Cc1ccc(-n2cccn2)cc1 (centres unmarked) [Example 56] .
101

Now try Cc1ccc(C(O)(c2ccc3nc(C)c(Cc4ccc(C(F)(F)F)cc4)c(Cl)c3c2)c2cnnn2C)c(C)n1 (centres unmarked) [Example 28a] .
99

Now try COc1nc2ccc(C(O)(c3sc(C)nc3C)c3cnnn3C)cc2c(Cl)c1Cc1ccc(-n2cccn2)cc1 (centres unmarked) [Example 21a] .
101

Now try COc1nc2ccc(C(O)(c3ccc(C)nc3C)c3cnnn3C)cc2c(C#N)c1Cc1ccc(C(F)(F)F)nc1 (centres unmarked) [Example 41a] .
99

* * *

target: wild type human RORγt LBD (Homo sapiens, UniProt P51449); construct: expressed in transfected cells; host or cells: HEK293T; assay: RORγt (LBD) Reporter Assay (GAL4-luciferase, HEK293T cells); assay type: cell-based; details: HEK-293T, read-out: RORγt (LBD) Reporter Assay, % inhibition @ 6 µM, 6 µM compound concentration
Sequence (P51449 258-518): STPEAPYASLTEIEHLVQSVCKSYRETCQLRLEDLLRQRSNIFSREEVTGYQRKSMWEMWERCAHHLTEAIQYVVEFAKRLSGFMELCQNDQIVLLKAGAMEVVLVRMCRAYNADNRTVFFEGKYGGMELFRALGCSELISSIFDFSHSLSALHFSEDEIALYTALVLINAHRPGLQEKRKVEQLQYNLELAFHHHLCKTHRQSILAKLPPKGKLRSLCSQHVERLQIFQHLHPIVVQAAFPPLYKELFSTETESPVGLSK
Metric name: inhibition at 6 µM
Lab note: write values as number then unit, every time.

Known inhibition at 6 µM results, listed for orientation:
COc1nc2ccc(C(O)(c3cnnn3C)c3cnc(C)n3C)cc2c(Cl)c1Cc1ccc(F)cc1 (single isomer, unassigned) [Example 65b] = 74%
Cn1cncc1C(O)(c1ccc2nc(C(F)(F)F)c(Cc3ccccc3)c(C#N)c2c1)c1ccccn1 (racemic) [Example 99a] = 93%
Cn1cc(-c2nc3ccc(C(O)(c4ccc(C(F)(F)F)nc4)c4cncn4C)cc3c(Cl)c2Cc2ccccc2)cn1 (single isomer, unassigned) [Example 111b] = 99%
COc1nc2ccc(C(O)(c3ccccn3)c3cncn3C)cc2c(Cl)c1Cc1ccc(-n2cccn2)cc1 (single isomer, unassigned) [Example 64b] = 103%
COc1c(Cc2ccccc2)c(C(F)(F)F)nc2ccc(C(O)(c3ccccn3)c3cncn3C)cc12 (racemic) [Example 98a] = 101%

Next molecule, inhibition at 6 µM to be filled in.
Dear colleague, I am looking for the recorded inhibition at 6 µM of the following molecule: COc1nc2ccc(C(O)(c3cnnn3C)c3cnc(C)n3C)cc2c(C#N)c1Cc1ccc(F)cc1 (racemic) [Example 66a]
90%
